Where do the numbers come from? From patent US20210388087A1.

Target: T1, Human CD3eg linker (human)
T1 construct: Single-chain construct; also called recombinant human CD3
T1 chain: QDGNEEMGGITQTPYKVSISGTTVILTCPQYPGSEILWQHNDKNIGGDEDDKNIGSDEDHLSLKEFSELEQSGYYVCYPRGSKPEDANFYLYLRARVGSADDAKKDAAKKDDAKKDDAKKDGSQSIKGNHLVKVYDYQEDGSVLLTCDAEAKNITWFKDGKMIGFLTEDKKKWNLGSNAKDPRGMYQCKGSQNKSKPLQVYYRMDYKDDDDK
Assay: SPR; fold vs parent H183/L072
Parameter: fold change of affinity

Consider the reported fold change of affinity for these binders:
>  <Binder>
H183/L072 VL S93R (antibody, name in Kabat numbering, V domains shown) VH: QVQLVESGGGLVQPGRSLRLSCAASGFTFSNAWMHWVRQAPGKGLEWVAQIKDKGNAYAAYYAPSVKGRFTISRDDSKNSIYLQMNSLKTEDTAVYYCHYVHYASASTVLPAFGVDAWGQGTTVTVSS VL: DIVMTQSPLSLPVTPGEPASISCQASQELVHMNRNTYLHWYQQKPGQAPRLLIYKVSNRFPGVPDRFSGSGSGTDFTLKISRVEAEDVGVYYCAQGTRVPFTFGQGTKLEIK

>  <Result>
1 fold

$$$$
>  <Binder>
H183/L072 VL N53V (antibody, name in Kabat numbering, V domains shown) VH: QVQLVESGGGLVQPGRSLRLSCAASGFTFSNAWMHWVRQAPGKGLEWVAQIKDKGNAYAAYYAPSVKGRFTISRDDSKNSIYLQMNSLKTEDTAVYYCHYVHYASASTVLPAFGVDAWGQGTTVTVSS VL: DIVMTQSPLSLPVTPGEPASISCQASQELVHMNRNTYLHWYQQKPGQAPRLLIYKVSVRFPGVPDRFSGSGSGTDFTLKISRVEAEDVGVYYCAQGTSVPFTFGQGTKLEIK

>  <Result>
0.3 fold

$$$$

Now, please, on to the next binder.
[Q] I am curious: what fold change of affinity value has been reported for H183/L072 VL H34K (antibody, name in Kabat numbering, V domains shown) VH: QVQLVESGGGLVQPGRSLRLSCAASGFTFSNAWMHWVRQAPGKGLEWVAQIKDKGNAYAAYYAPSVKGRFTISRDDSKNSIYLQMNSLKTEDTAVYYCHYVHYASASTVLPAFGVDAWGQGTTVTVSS VL: DIVMTQSPLSLPVTPGEPASISCQASQELVHMNRNTYLKWYQQKPGQAPRLLIYKVSNRFPGVPDRFSGSGSGTDFTLKISRVEAEDVGVYYCAQGTSVPFTFGQGTKLEIK ?
[A] 0.4 fold
